The reported measurements were obtained from ChEMBL document CHEMBL1201862.

# Tested on: SF-539
# experiment description: NCI tumour cell line growth inhibition, 48 h
Calls of active or inactive are those of the source. Cut-off read from the data, not from the text of the source: active = GI50 up to about 1.1 µM and inactive = higher.
Respond with a class label; see active, inactive

Worked set:
molecule | test system | class
FC(F)(F)c1ccc2c(c1)nc(-c1ccc(Cl)cc1)n2CC1CCCN2CCCCC12 (centres undefined) | SF-539 | inactive
C=CCC1(O)C(=O)OC2C(O)COC21O (centres undefined) | SF-539 | inactive
COC1=C(OC)C(=O)C(Cc2c(Cl)nc3n2CCS3)=C(C)C1=O | SF-539 | inactive
C=CCN1CCC23c4c5ccc(O)c4OC2C(=NN=C2CCC4(O)C6Cc7ccc(O)c8c7C4(CCN6CC=C)C2O8)CCC3(O)C1C5 (centres undefined) | SF-539 | inactive
CCOC1SC(SC)=NN1C(=O)C(OC(C)=O)C(OC(C)=O)C(OC(C)=O)C(OC(C)=O)C(=O)N1N=C(SC)SC1OCC (centres undefined) | SF-539 | inactive

q: What was the test verdict on "COC(=O)NC(=O)c1cn(CCCOC(=O)CCCCCCCCC(=O)OCCCn2cc(C(=O)NC(=O)OC)c(=O)[nH]c2=O)c(=O)[nH]c1=O" ?
a: inactive

q: Look up the recorded call for "CN(CCNC(=S)c1cn(C)c2c1ccc1ccccc12)CCNC(=S)c1cn(C)c2c1ccc1ccccc12" in this test.
a: inactive

q: Hey, what did the test say about "N#Cc1c(-c2ccccc2)c(/N=N/c2ccc(F)cc2)c(=O)n2c1[nH]c1ccccc12" ?
a: inactive

q: Tell me the assay call for "COc1ccc2c(=O)c3cc([N+](=O)[O-])ccc3n(C)c2c1" please.
a: inactive

q: How did this test come out for "Nc1n[nH]c2nc3ccccc3nc12" ?
a: inactive

q: Write down the call the test reported for this molecule. Item: CCOc1ccc(NC(=O)C(=O)C(/C(=N/N)C(=O)OC)c2nc3ccc([N+](=O)[O-])cc3nc2O)cc1 (centres undefined)
a: inactive

q: For N#Cc1ccc(NC(=O)C(CC(=O)OCc2ccccc2)NC(=O)OCc2ccccc2)cc1 (centres undefined) , which call appears in the assay record?
a: inactive

q: Name the outcome recorded for "NC1(C(=O)O)CCCC1" in the assay.
a: inactive

q: Could you check what this test reported for CCC(O)CC1OC2(CCC1C)CC1OC(=O)/C=C\C(C)(O)C(O)C(C)C(O)C(OC3CC(OC)C(O)C(C)O3)C(O)C(C)(O)CCC/C=C/C3CC(C)COC3(O)CC(O2)C1C (centres undefined) ?
a: inactive

q: Tell me the assay call for Nc1nc(=O)c2c([nH]1)NCC(CCNc1ccc(C(=O)O)cc1)N2 (centres undefined) please.
a: inactive

q: For "CCCNc1[nH]c(C(=O)c2ccccc2)c(N)c1C(=S)Nc1ccccc1" , which call appears in the assay record?
a: inactive

q: Recorded test call requested for "O=[N+]([O-])C(=C/c1ccccc1)/C(=C\c1ccccc1)[N+](=O)[O-]"
a: inactive

q: What was the test verdict on CC(N/N=C(\S)N1CCCC1)c1cccnn1 (centres undefined) ?
a: active

q: Per the assay record, what outcome was assigned to Cc1cccc(C)c1N1C(=O)C2c3[nH]c4ccccc4c3C3CCC(C(C)(C)C)CC3C2C1=O (centres undefined) ?
a: inactive
